Would you mind telling me the reported TGI of each entry?
System: M14 melanoma
Assay Procedure: NCI tumour cell line growth inhibition, 48 h

Reported TGI of Nc1nc(-c2ccc(Cl)cc2)nc2c1sc(=S)n2-c1ccccc1 : 38.1 µM

Record summary for N#C/C(=C\c1cc2ccc(N3CCC3)cc2oc1=O)C(=O)N(CC(=O)O)CC(=O)O : reported TGI = > 100 µM

The molecule N#C/C(=C1\OC(=N)C(c2ccc(Cl)cc2Cl)C1=O)c1ccc(Cl)cc1Cl (configuration not stated) showed TGI equal to > 100 µM

Input O=C1CSC(c2ccccc2O)N1c1ccc(Oc2ccc(Cl)cc2)c(Cl)c1 (configuration not stated) . Output TGI: 76.9 µM

Lookup result for c1cncc(CSc2ncnc3nc[nH]c23)c1 ; measured TGI: > 100 µM

The molecule listed as CN1CCC/C1=C1/C(=O)N(c2ccccc2)N=C1c1ccc[nH]1 has a reported TGI of > 100 µM

For this molecule ( Nc1ccc(-c2nc3ccc(F)cc3s2)cc1I ), measured TGI is > 100 µM

// field: TGI; key: CCOC(=O)C(Cc1ccc(N(CCCl)CCCl)cc1)NC(=O)C(Cc1ccccc1)NC(C)=O (configuration not stated) ; value = > 0.318 µM

Notebook: O=C1/C(=C/c2cccs2)NC(=S)N1CN1CCCCC1 , TGI read as > 100 µM

Sample O=C(CC(=O)c1ccccc1)C(=O)Nc1ccc(Cl)cc1 ; TGI observed: > 100 µM

# molecule Nc1nc2ncn(CC(O)CO)c2c(=O)[nH]1 (configuration not stated) ; its TGI = > 100 µM

According to the records, this molecule Cc1ccc(NC(=O)/C(C#N)=C/c2ccccc2)c(C)c1 displays TGI of > 100 µM

---

Please go through the items and note down their TGI.
System: LXFL 529 NSCLC
Assay Procedure: NCI tumour cell line growth inhibition, 48 h

TGI recorded for this compound, O=C(Cc1ccccc1)C(c1ccccc1)S(=O)(=O)c1ccccc1 (centres undefined) , is > 100 µM

Looking up O=C(c1c(O)cc(O)cc1O)C1Cc2ccccc21 (centres undefined) , I see its TGI listed as > 100 µM

The compound identified as CSC(=N)N1N=C2/C(=C/c3ccccc3)CCC[C@H]2[C@H]1c1ccccc1 registered its TGI at 16.7 µM

Value of TGI reported for the compound COc1cc(-c2cc(=O)c3ccccc3[nH]2)cc(OC)c1OC is > 75 µM

The recorded TGI for CS(=O)(=O)C1(Br)S(=O)(=O)OCCOS1(=O)=O is > 100 µM

O=C(O)C12CC3CC(C1)C2C=C3P(=O)(O)O (centres undefined) has a reported TGI of > 100 µM

Record summary for CC(=O)OCC(CC[CH2][Sn]([Cl])([Cl])[c]1ccccc1)OC(C)=O (centres undefined) : reported TGI = 27 µM

Entry CC(C)OC(=O)C1Cc2c([nH]c3ccccc23)C(c2ccccc2)N1 (centres undefined) , TGI reported as > 100 µM

Value of TGI reported for the compound Cc1nnc(N/N=C(/C(=O)C(C#N)c2ccc(Cl)cc2)C(C#N)c2ccc(Cl)cc2)n1N (centres undefined) is 26.6 µM

Query COC(=O)c1ccc(C=C(C#N)C#N)cc1 yields TGI of 37.4 µM

Reported TGI ( COC(=O)CCC(NC(=S)N/N=C(\C)c1cnccn1)C(=O)OC (centres undefined) ) = > 100 µM

Lab book: TGI of CC(N)CC(=O)O (centres undefined) noted as > 5000 µM

Documented TGI of Nc1nc2ncn(CC(O)CO)c2c(=O)[nH]1 (centres undefined) : > 100 µM

TGI for C/C(=N\NC(=O)C(N)=O)c1c(O)cc(C)oc1=O is > 100 µM

Notebook: CC(C)(C)c1cc(C(=O)O)c2c(c1)C(=O)OC2(c1ccccc1)c1ccccc1C(=O)O (centres undefined) , TGI read as > 100 µM

Form: compound = CCc1ccccc1NC(=O)CC1NC(=O)CS1 (centres undefined) ; TGI = > 100 µM

Record C[P+]1(c2ccccc2)CCCCC1 . Reported TGI: > 100 µM

The recorded TGI for entry Cc1ccc(C2=Nc3ccccc3SC(c3cccc4c3OCO4)C2)cc1 (centres undefined) equals 28.9 µM

Item: CC1CCC2(C)C(CC=C(C=O)C2(O)C=O)C12CO2 (centres undefined) | TGI: 3.33 µM
